System: CAOV3
Test: Primary qHTS to identify gynecologic anti-cancer compounds using libraries of approved drugs and bioactive compounds (AID 1345084); further: on the % scale 0 is the no-effect control and ±100 the full control effect; nearly all actives have a fitted effect of over 55% in size
Conditions: Gynecologic cancer cell panel viability, ATPlite luminescence, 48 h; series mostly up to 57.5 µM
Results filed as inconclusive are left out. Calls of active or inactive are those of the source. The call rests on the fitted dose curve; in most records, active means well fitted cell-killing curve with a large enough effect; inconclusive means small, poorly fitted or top-dose-only effect, or effect the other way; inactive means flat fitted curve, though single readings scatter.
Permitted responses: active, inactive

>>> class("Cc1csc(N(C(=O)CSc2ccc(-c3ccccc3)nn2)C2CC2)n1")
"inactive"
>>> class("C[C@@H]1C[C@H](C)CN(CCC(=O)Nc2ccc(Br)cc2)C1")
"inactive"

Assay outcome for CC(C)(C)[C@H](NC(=O)c1ccc(N)c(Cl)c1)C(=O)N1CCC[C@H]1C(=O)N[C@H](C#N)CC(=O)O : what was it?
inactive

And CC[C@H]1CN(c2nc(N)c(C(N)=O)nc2Cl)CCN1C1CCN(Cc2ccc(Cl)cc2)CC1 ?
inactive

And O=S(=O)(Nc1ccccc1N1CCCCC1)c1ccc(Cl)s1 ?
inactive

And O=C(Nc1ccc(Cl)cc1)c1ccccc1NCc1ccncc1 ?
inactive

And CC(C)(O)c1ccc2c(c1)ncn2-c1cccc(-c2ccccc2C#N)c1 ?
inactive

====

For each entry below, report its activity value.
Biological target: Phenylethanolamine N-methyltransferase (Homo sapiens)
Assay: Confirmatory Screen for Target Class Profiling of Small Molecule Inhibitors of Methyltransferases (AID 1745852)
Details: MTase-Glo luminescence, SAH detection, recombinant enzyme; measured here: PNMT max response; stronger effect = lower value
Answers are plain numbers, in %.

>>> result("Fc1ccc(N2CCCCC2)c(NC(=S)c2ccncc2)c1")
-11.8
>>> result("O=S1(=O)CCN(Cc2cc(NCC3CCOCC3)c3[nH]c(-c4ccccc4)cc3c2)CC1")
-4.93
>>> result("COc1cc2c(NC3CCN(C(C)C)CC3)nc(N3CCC(F)(F)CC3)nc2cc1OCCCN1CCCC1")
-0.61

Could I get activity for every one of these entries?
1. N#C/C(=C1\Nc2ccccc2S1)c1ccnc(NCCc2cccnc2)n1
2. COC(C)(C)CCn1nc(Nc2c(C)cccc2C)c2cnc(Nc3ccc(OCCN4CCCC4)c(F)c3)nc21
3. COc1cc2nc(N3CCN(C(=O)c4ccco4)C4CCCCC43)nc(N)c2cc1OC (stereo not drawn)
4. COC(=O)CC1OC(C)C2=C(O)c3c(O)cccc3C(=O)C23OC13 (stereo not drawn)
5. CCC(CC)C(c1ccc(Nc2nc3ccccc3s2)cc1)n1cncn1 (stereo not drawn)

-21.8
-4.06
0.0711
-0.505
-5.31

Could I get activity for every one of these entries?
1. CCC(=O)N1CCOc2c(cc(-c3ccc(OC)c(OC)c3)cc2OC[C@H]2CCCN(C)C2)C1
2. CNCCC(c1cccs1)c1ccc(O)c2ccccc12 (stereo not drawn)
3. COc1cc2c(Nc3cc(F)c(Cl)c(Cl)c3)ncnc2cc1OCC1CCCN(C)CCC1
4. COc1cc(N2CCC(N)CC2)ccc1Nc1ncc(Cl)c(-c2c[nH]c3ccccc23)n1

1. -9.1
2. -1.78
3. -10.4
4. -27

Could I get activity for every one of these entries?
1. CCOC(=O)c1cnc2ccc(-c3cncc(NS(=O)(=O)c4ccccc4)c3)cn12
2. O=S(=O)(Nc1cc(Cl)c(Oc2cnc3ccccc3c2)c(Cl)c1)c1ccc(Cl)cc1Cl
3. COc1ccc(NC(=O)c2ccc(-c3ccc(C(=N)N)cc3C)cc2)cc1N1CCN(C)CC1

1. -35.9
2. -24
3. -6.51

Could I get activity for every one of these entries?
1. C=C1C(=O)OC2C(OC(=O)C=C(C)C)C(C)=C3C(=O)C=C(C)C3C(O)C12 (stereo not drawn)
2. COc1cc(/C=C2\CCCN([C@@H](C)c3ccc(F)cc3)C2=O)ccc1-n1cnc(C)c1
3. O=C(NCCCc1ccccc1)c1cccc(-c2cc(O)c3ncccc3c2)c1

1: 4.72; 2: -13; 3: 4.23

====

Target: Calcium and integrin-binding protein 1 (Homo sapiens)
Experiment: Confirmatory qHTS for Identification of Calcium Integrin Binding Protein 1 (CIB1) Competitor (AID 1508617); further: nearly all actives have a fitted effect of over 65% in size
Conditions: CIB1 binding competition assay, biochemical qHTS; series mostly up to 76.6 µM
Inconclusive results are not listed. The source made the active and inactive calls. Calls follow the shape of the dose curve; as a rule, active = well fitted inhibition curve with a large enough effect; inconclusive = small, poorly fitted or top-dose-only effect; inactive = no such curve, though single readings can be large or run the other way.
Permitted responses: 1.0 for active, 0.0 for inactive

Would you please look over these solved cases?
>>> class("COc1nc2ccc(Br)cc2cc1[C@@H](c1ccccc1)[C@@](O)(CCN(C)C)c1cccc2ccccc12")
1.0
>>> class("Cn1sc(=O)n(Cc2ccccc2)c1=O")
1.0
>>> class("CCC1C(=O)N(C)c2cnc(Nc3ccc(C(=O)NC4CCN(C)CC4)cc3OC)nc2N1C1CCCC1 (stereo unspecified)")
0.0
>>> class("O=C(O)CSc1cc(NS(=O)(=O)c2ccc(Br)cc2)c2ccccc2c1O")
1.0
>>> class("O=C(c1ccccc1)c1c(O)cc(O)cc1O[C@@H]1O[C@H](CO)[C@@H](O)[C@H](O)[C@H]1O")
0.0

Now consider a different compound.
Assay outcome for N#Cc1ccc(Nc2nc(-c3ccc(O)cc3O)cs2)cc1C(F)(F)F : what was it?
1.0

====

For each entry below, report its activity change, negative = cytotoxicity value.
Tested on: CAOV3
Assay: Primary qHTS to identify gynecologic anti-cancer compounds using libraries of approved drugs and bioactive compounds (AID 1345084); further: on the % scale 0 is the no-effect control and ±100 the full control effect; nearly all actives have a fitted effect of over 55% in size
Conditions: Gynecologic cancer cell panel viability, ATPlite luminescence, 48 h; series mostly up to 57.5 µM
Results filed as inconclusive are left out. Active and inactive are the calls of the source. Calls follow the shape of the dose curve; as a rule, active = well fitted cell-killing curve with a large enough effect; inconclusive = small, poorly fitted or top-dose-only effect, or effect the other way; inactive = flat fitted curve, though single readings scatter.

>>> result("C[C@@H]1O[C@@H](O[C@H]2CC[C@@]3(C)C(CC[C@]4(C)C3CC=C3[C@@H]5CC(C)(C)CC[C@]5(C(=O)O[C@@H]5O[C@H](CO)[C@@H](O)[C@H](O)[C@H]5O)CC[C@]34C)[C@]2(C)CO)[C@H](O)[C@H](O[C@@H]2O[C@H](CO)[C@@H](O)[C@H](O)[C@H]2O)[C@H]1O (some centres not stated)")
"-0.291% [at 11.6 µM] (inactive)"

Please turn your attention to the following entry.
Entry C[C@H]1CC[C@@]2(OC1)O[C@H]1CC3[C@@H]4CC[C@@H]5C[C@@H](O[C@@H]6O[C@H](CO)[C@@H](O[C@@H]7O[C@H](CO[C@@H]8OC[C@@H](O)[C@H](O)[C@H]8O)[C@@H](O[C@@H]8O[C@H](CO)[C@H](O)[C@H](O)[C@H]8O)[C@H](O)[C@H]7O)[C@H](O)[C@H]6O)CC[C@]5(C)C4CC[C@]3(C)[C@H]1[C@@H]2C (some centres not stated) has what activity change, negative = cytotoxicity?
0.154% [at 11.6 µM] (inactive)

====

Molecular target: Furin (Homo sapiens)
Experiment: Furin counterscreen qHTS for Zika virus inhibitors (AID 1347149); further: nearly all actives have a fitted effect of over 70% in size
Conditions: furin enzymatic counterscreen, fluorogenic substrate; series mostly up to 114 µM
Records with an inconclusive call do not appear. Activity calls are given as the source filed them. The call rests on the fitted dose curve; in most records, active means well fitted inhibition curve with a large enough effect; inconclusive means small, poorly fitted or top-dose-only effect; inactive means no such curve, though single readings can be large or run the other way.
Permitted responses: class 1 (active), class 0 (inactive)

Would you please look over these solved cases?
>>> class("CC(C)C[C@H](C(=O)O)c1cc(-c2ccc(C(F)(F)F)cc2)cc(-c2ccc(C(F)(F)F)cc2)c1")
"class 1"
>>> class("CCC(CC)(NC(=O)C(C)C)C(=O)N[C@@H](CCCN=C(N)N)C(=O)NC1(C(=O)NC(c2ccc(F)cc2)c2ccc(F)cc2)CCCC1")
"class 0"
>>> class("Oc1cccc(-c2c3nc(c(-c4cccc(O)c4)c4ccc([nH]4)c(-c4cccc(O)c4)c4nc(c(-c5cccc(O)c5)c5ccc2[nH]5)CC4)C=C3)c1")
"class 0"

Assay outcome for COc1ccc(-c2ccccc2)cc1NS(=O)(=O)c1cc(Cl)cc(Cl)c1O : what was it?
class 1

====

Test system: NIH3T3
Assay: Cytotoxic Profiling of Annotated Libraries Using Quantitative High-Throughput Screening (AID 1296008); further: on the % scale 0 is the no-effect control and ±100 the full control effect; nearly all actives have a fitted effect of over 60% in size
Conditions: Five cell lines viability, CellTiter-Glo ATP luminescence, 48-72 h; stronger effect = lower value
Inconclusive results are not listed.
For each entry below, report its max response value.
Answers are plain numbers, in %.

Solved entries:
>>> result("O=C(CSc1nc2ccccc2c(=O)n1-c1ccccc1)Nc1ccc2c(c1)CCC2")
-0.829
>>> result("O=C(Nc1ccc(N2C(=O)[C@@H]3[C@H](C2=O)[C@@H]2C=C[C@H]3C2)c(Cl)c1)c1ccccn1")
-23.8
>>> result("COc1ccc(CN2CCN(C(=O)CCNC(=O)c3ccc(C(C)(C)C)cc3)CC2)cc1")
3.24
>>> result("O=C(Nc1cc(C(F)(F)F)ccc1N1CCCCC1)c1ccncc1")
1.75
>>> result("CCC(C)C(=O)OC1C(C)C2(O)C(C=C(CO)CC3(O)C(=O)C(C)=CC32)C2C(C)(C)C12OC(=O)C(C)C (centres undefined)")
-1.26

Could I get max response for every one of these entries?
1. CC1(C)CC[C@]2(C(=O)O)[C@H](O)C[C@]3(C)C(=CCC4[C@@]5(C)CC[C@H](O[C@@H]6O[C@H](CO[C@@H]7OC[C@H](O)[C@H](O)[C@H]7O[C@@H]7OC[C@H](O)[C@H](O)[C@H]7O)[C@@H](O)[C@H](O)[C@H]6O)C(C)(C)C5CC[C@]43C)[C@@H]2C1 (some centres undefined)
2. C/C=C(/C=C(C)/C=C/C=C/C=C(\C)C(=O)C12OC1C(O)(CCO)NC2=O)C(=O)OC (centres undefined)

1. -3.93
2. -1.05

Could I get max response for every one of these entries?
1. O=C(Nc1cccnn1)N1CCN(c2nccc(-c3ccc(F)c(F)c3)n2)CC1
2. N#Cc1ccc(COC[C@H]2O[C@@H](n3c(NCc4ccc(Cl)c(Cl)c4)nc4c(N)ncnc43)[C@H](O)[C@@H]2O)cc1

[-4.62, -0.0303]
